- Tested on: SNB-75
- test-method-notes: NCI tumour cell line growth inhibition, 48 h
Activity calls are given as the source filed them. Rule as the data show it: active = GI50 up to about 1.1 µM and inactive = higher.
readout-name: GI50

1) O=C(CC1(O)C(=O)Nc2ccccc21)c1ccccc1Cl (centres undefined): > 100 µM (inactive)
2) CCCC(CCN)(CCN)[N+](=O)[O-]: 11.2 µM (inactive)
3) COc1cc(/C=C/C(=O)C2(C(=O)/C=C/c3cc(OC)c(OC)c(OC)c3)CCCCC2)cc(OC)c1OC: 56.4 µM (inactive)
4) O=C(Cc1ccccc1)N/N=C(/c1nc2ccc([N+](=O)[O-])cc2nc1O)C(O)c1ccc(C(O)/C(=N/NC(=O)Cc2ccccc2)c2nc3ccc([N+](=O)[O-])cc3nc2O)cc1 (centres undefined): 31.3 µM (inactive)

# assay system SNB-75: give GI50 of O=C1/C(=C/c2ccc(O)cc2)CCc2ccccc21
26.9 µM (inactive)

# assay system SNB-75: give GI50 of Cc1cccc(C)c1NC(=O)CCc1nnc2s/c(=C\c3ccc(Cl)cc3)c(=O)n12
73.8 µM (inactive)

# assay system SNB-75: give GI50 of Cc1cc2c(C)n[nH]c2c(C(=O)O)c1C
> 100 µM (inactive)

# assay system SNB-75: give GI50 of O=[N+]([O-])c1cccc(/C=N/C23CC4CC(CC(C4)C2)C3)c1
> 100 µM (inactive)

# assay system SNB-75: give GI50 of CN(CCCN1C(=O)c2cccc3cc([N+](=O)[O-])cc(c23)C1=O)CCN(C)CCCN1C(=O)c2cccc3cc([N+](=O)[O-])cc(c23)C1=O
20.4 µM (inactive)

====

- Test system: SK-MEL-28
- test-method-notes: NCI tumour cell line growth inhibition, 48 h
Calls of active or inactive are those of the source. Rule as the data show it: active = GI50 up to about 1.1 µM and inactive = higher.
readout-name: GI50

Recorded results for 5 molecules are shown here.
1) O=C(/C=C/c1ccccc1)NC1C=Nc2ccc([N+](=O)[O-])cc2NC1=O (stereo unspecified): > 100 µM (inactive)
2) Nc1nc(Cl)nc2c1ncn2C1CC(O)C(CO)O1 (stereo unspecified): 43.3 µM (inactive)
3) COc1cc(C)c(S(=O)(=O)N(CCCN)OCCCN)c(C)c1C: 38.9 µM (inactive)
4) CCON1CC(C(=O)OC)=C(O)C1=O: > 100 µM (inactive)
5) COC1CC(n2cc(F)c(N)nc2=O)OC1CO (stereo unspecified): > 100 µM (inactive)

Now look at this entry.
Respond only with GI50 recorded for Cc1cc(=O)oc2c(C)c3oc(CBr)cc3cc12
19.8 µM (inactive)

====

- Tested on: EKVX
- test-method-notes: NCI tumour cell line growth inhibition, 48 h
Calls of active or inactive are those of the source. Rule as the data show it: active = GI50 up to about 1.1 µM and inactive = higher.
Recorded GI50, one value per entry.

Recorded results for 3 compounds are shown here.
1) COc1ccc(/C(Cl)=C(\C#N)c2ccc(OC)c(OC)c2)cc1OC: 21.3 µM (inactive)
2) COc1cc(/C=C/C(=O)C2(C(=O)/C=C/c3cc(OC)c(OC)c(OC)c3)CCCCC2)cc(OC)c1OC: 27.5 µM (inactive)
3) CCCc1n[nH]c(CCC(=O)N(Cc2ccccc2)Cc2ccccc2)c1CC: > 100 µM (inactive)

Respond only with GI50 recorded for CC1(C)C2CCC3(C2)CS(=O)(=O)N2OC231 (stereo not given)
15.7 µM (inactive)

Respond only with GI50 recorded for FC(F)(F)c1ccc(C2=N/S(c3ccccc3)=N\C(c3ccc(C(F)(F)F)cc3)=N/S(c3ccccc3)=N\2)cc1 (stereo not given)
> 100 µM (inactive)

Attribution: ChEMBL document CHEMBL1201862
